TARGET OR SYSTEM: SRMS (human)
PROTOCOL DETAILS: radiometric filter-binding kinase assay, Kinase HotSpot
ASSAY CONDITIONS: compound 0.5 µM; ATP 10 µM

# MOLECULE SMILES, UNIT OF MEASUREMENT, residual activity
data = [
    ("CCN(CC)CCCCN1c2ccccc2Oc2ccc(Cl)cc21", "%", 105),
    ("CC(C)c1nn(-c2c(Cl)cccc2Cl)c2nc(Cc3ccc(OCCO)cc3)nc(O)c12", "%", 91.5),
    ("Cn1sc(=O)n(Cc2ccccc2)c1=O", "%", 96.2),
    ("Nc1nnc2[nH]c3ccccc3nc1-2", "%", 88.5),
    ("CC(=O)O/N=C1\\C(=C2\\C(=O)Nc3cc(Br)ccc32)Nc2ccccc21", "%", 98),
    ("O=C(O)/C=C/c1cc(Br)c(Br)c(Br)c1Br", "%", 89.3),
    ("Cn1nc2c3c(cccc31)C(=O)c1ccccc1-2", "%", 104),
    ("CC(C)[C@H](CO)Nc1nc(Nc2cc(N)cc(Cl)c2)c2ncn(C(C)C)c2n1", "%", 96.8),
    ("O=C(Nc1cccc(Nc2cc(Nc3cccc(C(F)(F)F)c3)ncn2)c1)C1CC1", "%", 95.2),
    ("O=C1NC(=O)C(c2cn(CCCO)c3ncccc23)=C1c1cnccn1", "%", 95.9),
    ("Nc1nccc(-c2c(-c3ccc(F)cc3)ncn2C2CCNCC2)n1", "%", 97.5),
]
